assayText: small-molecule microarray binders of probe aLefty2, primary screen, biochemical, biotinylated probe, 635/667 nm fluorescence (AID 1094);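 note: score merges spot fluorescence near 667 nm with spot signal-to-noise ratio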
cond: higher = more signal
The entries below come with measured composite z-score values attached.
Output spec: single numeric token, no unit.

Use these answered entries as a reference point.
Sample O=C1NC(=O)C2C1C=CC(C(O)c1c(F)cccc1Cl)N2Nc1ccccn1 (stereo unspecified) ; composite z-score observed: 0.21

Sample C=CCC(OC(C)=O)[C@@H]1[C@@H](N(Cc2ccc(-c3ccccc3)cc2)C(=O)c2cccc3ccccc23)c2cc(OCCCO)ccc2N1C(=O)Cc1ccc2ccccc2c1 (stereo partly specified) ; composite z-score observed: -0.0407

Sample CC(C)C(O)C1C=CC2C(=O)N(C)C(=O)C2N1N(c1ccccc1)c1ccccc1 (stereo unspecified) ; composite z-score observed: 0.0443

Sample C[C@@H](OCc1ccccc1)C1NC(=O)[C@@]23C(=O)N[C@@H](Cc4ccccc4)C2[C@H](C)[C@@]2(C)O[C@H]2C3/C=C/C/C=C\CNC(=O)CNC1=O (stereo partly specified) ; composite z-score observed: -0.145

Sample CCCCN1CC=CC23O[C@@H]4C=CCOC(=O)[C@@H]4[C@H]2C(=O)N(C(C)CO)[C@@H]3C1=O (stereo partly specified) ; composite z-score observed: -0.205

Note: attention shifts to another entry.
Sample O=C1C[C@@](C(=O)NCC(F)(F)F)(c2ccc([N+](=O)[O-])cc2)[C@@H](c2ccc(CO)cc2)N1C1CCCCC1 ; composite z-score observed: 0.11

###

The entries below come with measured composite z-score values attached.
assayText: anti-His antibody binders, primary screen, artefact control for SMM control protein annotation, biochemical, small-molecule microarray, 635 nm fluorescence (AID 1128);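 note: score merges feature fluorescence with signal-to-noise for each printed compound spot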
cond: anti-His Alexa647 antibody binding, higher = more signal
Output spec: single numeric token, no unit.

Sample C=C(/C(=C/C[C@@H](OC(=O)c1ccncc1)c1ccccc1OCCO)c1cc(C(=O)OC)ccc1OC)C(C)C ; composite z-score observed: 0.0652

Sample C=CCN1Cc2ccccc2C[C@@]2(N=C(c3ccc(OCCCO)cc3)O[C@H]2c2ccccc2)C1=O ; composite z-score observed: 0.69

Sample COC(=O)[C@]1(CCS(=O)(=O)c2ccccc2)N=C(c2ccc(OCCCO)cc2)O[C@@H]1c1ccccc1CN=[N+]=[N-] ; composite z-score observed: 1.15

Note: attention shifts to another entry.
Sample CC(C)N1C(=O)[C@@]2(c3ccc([N+](=O)[O-])cc3)CC(=O)N(C3CCCCC3)[C@@H]2c2ccc(CO)cc21 ; composite z-score observed: 0.111

###

The entries below come with measured z-score values attached.
assayText: inhibitors of hydroxyurea-induced Chk1 phosphorylation, primary screen, imaging, HeLa, phospho-Chk1 antibody, percent positive cells (AID 1186)
cond: hydroxyurea-induced phospho-Chk1 immunofluorescence imaging, higher = more signal
Output spec: single numeric token, no unit.

Sample CCOC(=O)C[C@H]1[C@H](OC(=O)c2ccc(C(=O)c3ccccc3)cc2)[C@@H](NC(=O)c2ccc3ccccc3c2)c2cc(OCCCO)ccc2N1C(=O)c1ccccc1 ; z-score observed: 0.451

Sample CCOC(=O)C[C@H]1[C@H](OC(=O)c2ccc(-c3ccccc3)cc2)[C@@H](NC(=O)c2ccc3ccccc3c2)c2cc(OCCCO)ccc2N1C(=O)c1ccc2ccccc2n1 ; z-score observed: -0.361

Sample CC(C)(C)OC(=O)CC[C@]1(C(=O)NCCN2CCOCC2)N=C(c2ccc(OCCCO)cc2)O[C@H]1c1ccccc1 ; z-score observed: -0.103

More entries:
Sample NCCCCCCNC(=O)[C@H]1C[C@H]2C(=O)N[C@@H](Cc3ccccc3)C(=O)N2[C@H]1c1ccc(O)cc1 ; z-score observed: -0.174

Sample COc1ccc([Si](C)(C)[C@H]2[C@H](CC(=O)N3Cc4ccccc4C[C@H]3CO)O[C@@]3(C(=O)N(Cc4cccc(N5CCCCC5=O)c4)c4ccccc43)[C@@H]2C)cc1 ; z-score observed: -0.507

Sample CC(C)(C)OC(=O)CC[C@]1(C(=O)O)N=C(c2ccc(OCCCO)cc2)O[C@H]1c1ccccc1 ; z-score observed: -0.388

Sample O=C1C2C=CC(C(O)c3cc(C(F)(F)F)cc(C(F)(F)F)c3)N(Nc3ccc([N+](=O)[O-])cc3)C2C(=O)N1c1ccccc1 (configuration not stated) ; z-score observed: -0.198
